Experiment: collision cross section of modified peptide (TIMS, N2, iRT-aligned); higher = larger / more extended gas-phase ion
Settings: charge state: 2; modification: Phospho (Y)
collision cross section below 400 Å² gives no; collision cross section at or above it gives yes.

substance | class
LEENHYNTYISK [_LEENHYNTY(Phospho (Y))ISK_] | yes
ALYETELADAR [_ALY(Phospho (Y))ETELADAR_] | no
PATSYVR [_PATSY(Phospho (Y))VR_] | no
LSITGTYDLK [_LSITGTY(Phospho (Y))DLK_] | no

## Task In plain terms: is recorded collision cross section at least 400 Å² for CYYGSDTAGR [_CY(Phospho (Y))YGSDTAGR_] ?
## Result no

----------
Please go through the items and note down their collision cross section.
Experiment: collision cross section of modified peptide (TIMS, N2, iRT-aligned); higher = larger / more extended gas-phase ion
Conditions: charge state: 3; modification: Citrullination (R)
± gives the standard deviation.

Look over these answered cases.
entry-sequence | collision cross section
GRGGAESHTFK [_GR(Citrullination (R))GGAESHTFK_] | 436.66 ± 2.2 Å²
YGRGQLNYPLPDFSK [_YGR(Citrullination (R))GQLNYPLPDFSK_] | 492.79 Å²
GRGYFEHR [_GR(Citrullination (R))GYFEHR_] | 411.67 ± 1.3 Å²

For the 2 sequences below, give their collision cross section values.
1. RGATPPAPPRR [_R(Citrullination (R))GATPPAPPRR_]
2. LLRGVGGSHGR [_LLR(Citrullination (R))GVGGSHGR_]

## Result
1: 462.57 ± 1.3 Å²; 2: 442.38 ± 1.8 Å²

For the 5 sequences below, give their collision cross section values.
1. VEPIHAVVLPRGK [_VEPIHAVVLPR(Citrullination (R))GK_]
2. IQNGAQGIRFIYTR [_IQNGAQGIR(Citrullination (R))FIYTR_]
3. HLRGHGPQPPLR [_HLR(Citrullination (R))GHGPQPPLR_]
4. GGNFGGRGGYGGGGGGSR [_GGNFGGR(Citrullination (R))GGYGGGGGGSR_]
5. HTLLRAPAPELLPANVAGR [_HTLLR(Citrullination (R))APAPELLPANVAGR_]

## Result
1: 492.34 ± 18 Å²; 2: 506.23 Å²; 3: 482.78 ± 1.8 Å²; 4: 481.82 Å²; 5: 517.22 ± 8.9 Å²

----------
Test: collision cross section of unmodified peptide (TIMS, N2, iRT-aligned); higher = larger / more extended gas-phase ion
Settings: charge state: 2
reported-metric: collision cross section (Å²)
Numbers only, in Å².

Look over these answered cases.
substance | u | collision cross section
ASNAAVKLAESK | Å² | 381.6
GADFLVTEVENGGSLGSKK | Å² | 494.06
GTISAPGKVVTAAAQAK | Å² | 464.56
FSHSVQNSERGK | Å² | 402.29
GERGPPGPPGR | Å² | 331

For the 6 substances below, give their collision cross section values.
1. ANAIGRGAK
2. RGVGAGAIAK
3. GTVPDDAVEALADSLGKK
4. VSPASSVDSNIPSSQGYKK
5. VYPSSLSK
6. AEGYEVAHGGR

## Result
1. 319.32
2. 327.01
3. 478
4. 469.69
5. 317.31
6. 358.34

----------
Please go through the items and note down their collision cross section.
Experiment: collision cross section of modified peptide (TIMS, N2, iRT-aligned); higher = larger / more extended gas-phase ion
Settings: charge state: 2; modification: hydroxyisobutyryl
One number for each entry, in Å².

entry-sequence | u | quantitative-readout
GEVQVSDKER [_GEVQVSDK(hydroxyisobutyryl)ER_] | Å² | 366.78
GFCFITYTDEEPVKK [_GFCFITYTDEEPVK(hydroxyisobutyryl)K_] | Å² | 453.41
SNEEGSEEKGPEVR [_SNEEGSEEK(hydroxyisobutyryl)GPEVR_] | Å² | 409.53

For the 3 sequences below, give their collision cross section values.
1. FGTINIVHPKLGSYTK [_FGTINIVHPK(hydroxyisobutyryl)LGSYTK_]
2. VFSIISSEKELK [_VFSIISSEK(hydroxyisobutyryl)ELK_]
3. GSLGAQKLANTCFNEIEK [_GSLGAQK(hydroxyisobutyryl)LANTCFNEIEK_]

## Result
477.53
414.96
476.97

## Task Suppose we examine the sequence SLFFGGKGAPLQR [_SLFFGGK(hydroxyisobutyryl)GAPLQR_] ; what collision cross section value has been reported?
## Result 408.12

----------
Assay: collision cross section of modified peptide (TIMS, N2, iRT-aligned); higher = larger / more extended gas-phase ion
Conditions: charge state: 2; modification: Malonyl
collision cross section below 400 Å² gives N; collision cross section at or above it gives Y.

entry-sequence | class
SDDESSQKDIK [_SDDESSQK(Malonyl)DIK_] | N
ANEKTESSSAQQVAVSR [_ANEK(Malonyl)TESSSAQQVAVSR_] | Y
LQLEIDQKK [_LQLEIDQK(Malonyl)K_] | N

Please examine the following record next.
## Task In plain terms: is recorded collision cross section at least 400 Å² for DYSAPVNFISAGLKK [_DYSAPVNFISAGLK(Malonyl)K_] ?
## Result Y

----------
Assay: collision cross section of modified peptide (TIMS, N2, iRT-aligned); higher = larger / more extended gas-phase ion
Settings: charge state: 3; modification: Formyl
collision cross section below 500 Å² gives F; collision cross section at or above it gives T.

Previously resolved entries follow.
entry-sequence | class
AGQKLIDVNHYAK [_AGQK(Formyl)LIDVNHYAK_] | F
DFDTALKHYDK [_DFDTALK(Formyl)HYDK_] | F
IVFSGNLFQHQEDSKK [_IVFSGNLFQHQEDSK(Formyl)K_] | T
FSAYIKNSNPALNDNLEK [_FSAYIK(Formyl)NSNPALNDNLEK_] | T
SGNLTEDDKHNNAK [_SGNLTEDDK(Formyl)HNNAK_] | F
IINEPTAAAIAYGLDKK [_IINEPTAAAIAYGLDK(Formyl)K_] | T
SKHLQEQLNELK [_SK(Formyl)HLQEQLNELK_] | F

## Task In plain terms: is recorded collision cross section at least 500 Å² for DAEAAEATAEGALKAEK [_DAEAAEATAEGALK(Formyl)AEK_] ?
## Result T

----------
Experiment: collision cross section of modified peptide (TIMS, N2, iRT-aligned); higher = larger / more extended gas-phase ion
Conditions: charge state: 2; modification: Butyryl
collision cross section below 400 Å² gives n; collision cross section at or above it gives y.

Previously resolved entries follow.
entry-sequence | class
ILDLKTGTVK [_ILDLK(Butyryl)TGTVK_] | n
ISALQGKLSK [_ISALQGK(Butyryl)LSK_] | n
DYSAPVNFISAGLKK [_DYSAPVNFISAGLK(Butyryl)K_] | y

## Task In plain terms: is recorded collision cross section at least 400 Å² for LTSLNVKYNNDK [_LTSLNVK(Butyryl)YNNDK_] ?
## Result y

## Task Entry to check: VLDSGAPIKIPVGPETLGR [_VLDSGAPIK(Butyryl)IPVGPETLGR_]
## Result y

## Task Entry to check: FGTINIVHPKLGSYTK [_FGTINIVHPK(Butyryl)LGSYTK_]
## Result y

## Task Entry to check: KFGVLSDNFK [_K(Butyryl)FGVLSDNFK_]
## Result n

## Task Entry to check: VDIDAPDVSIEGPDAKLK [_VDIDAPDVSIEGPDAK(Butyryl)LK_]
## Result y

## Task Entry to check: IVFSGNLFQHQEDSKK [_IVFSGNLFQHQEDSK(Butyryl)K_]
## Result y

## Task Entry to check: VLTANSNPSSPSAAKR [_VLTANSNPSSPSAAK(Butyryl)R_]
## Result y

----------
Assay: collision cross section of modified peptide (TIMS, N2, iRT-aligned); higher = larger / more extended gas-phase ion
Conditions: charge state: 2; modification: Citrullination (R)
collision cross section below 400 Å² gives Not satisfied; collision cross section at or above it gives Satisfied.

Previously resolved entries follow.
entry-sequence | class
AVPSSPAGSAARGR [_AVPSSPAGSAAR(Citrullination (R))GR_] | Not satisfied
LRQQLQAK [_LR(Citrullination (R))QQLQAK_] | Not satisfied
AAYQAAIRGVGSAQSR [_AAYQAAIR(Citrullination (R))GVGSAQSR_] | Satisfied
RFGGPVHHQAQR [_R(Citrullination (R))FGGPVHHQAQR_] | Not satisfied

## Task In plain terms: is recorded collision cross section at least 400 Å² for RGGFAVQAK [_R(Citrullination (R))GGFAVQAK_] ?
## Result Not satisfied

## Task Entry to check: GGGGGRGGLHDFR [_GGGGGR(Citrullination (R))GGLHDFR_]
## Result Not satisfied

----------
Experiment: collision cross section of modified peptide (TIMS, N2, iRT-aligned); higher = larger / more extended gas-phase ion
Details: charge state: 3; modification: Trimethyl (K)
reported-metric: collision cross section (Å²)
One number for each entry, in Å².

Look over these answered cases.
entry-sequence | u | collision cross section
ATVASSTQKFQDLGVK [_ATVASSTQK(Trimethyl (K))FQDLGVK_] | Å² | 477.04
VGVEVPDVNIEGPEGKLK [_VGVEVPDVNIEGPEGK(Trimethyl (K))LK_] | Å² | 530.81
DAIHFYNKSLAEHR [_DAIHFYNK(Trimethyl (K))SLAEHR_] | Å² | 498.17
LLIVSTTPYSEKDTK [_LLIVSTTPYSEK(Trimethyl (K))DTK_] | Å² | 501.69
VGLQVVAVKAPGFGDNR [_VGLQVVAVK(Trimethyl (K))APGFGDNR_] | Å² | 497.24

For the 2 sequences below, give their collision cross section values.
1. AGPNASIISLKSDK [_AGPNASIISLK(Trimethyl (K))SDK_]
2. LQAAYAGDKADDIQK [_LQAAYAGDK(Trimethyl (K))ADDIQK_]

## Result
1. 457.38
2. 477.2

For the 2 sequences below, give their collision cross section values.
1. INNFSADIKDSK [_INNFSADIK(Trimethyl (K))DSK_]
2. AAINQKLIETGER [_AAINQK(Trimethyl (K))LIETGER_]

## Result
1. 459.74
2. 472.14

For the 7 sequences below, give their collision cross section values.
1. SNEEGSEEKGPEVR [_SNEEGSEEK(Trimethyl (K))GPEVR_]
2. DLGKFQVATDALK [_DLGK(Trimethyl (K))FQVATDALK_]
3. DSSPTTNSKLSALQR [_DSSPTTNSK(Trimethyl (K))LSALQR_]
4. ALLQAKASGK [_ALLQAK(Trimethyl (K))ASGK_]
5. DYSAPVNFISAGLKK [_DYSAPVNFISAGLK(Trimethyl (K))K_]
6. PSVSTKLISK [_PSVSTK(Trimethyl (K))LISK_]
7. IGNSYFKEEK [_IGNSYFK(Trimethyl (K))EEK_]

## Result
1. 464.15
2. 492.6
3. 473.36
4. 406.65
5. 523.24
6. 427.1
7. 441.97

For the 3 sequences below, give their collision cross section values.
1. LDHLAEKFR [_LDHLAEK(Trimethyl (K))FR_]
2. LLFSNTAAQKLR [_LLFSNTAAQK(Trimethyl (K))LR_]
3. ASNAAVKLAESK [_ASNAAVK(Trimethyl (K))LAESK_]

## Result
1: 436.32; 2: 480.65; 3: 456.46
